Ref: patent US9475775B2

experimental.system: human TLR8 (Homo sapiens (Human))
Sequence (Q9NR97 27-1041): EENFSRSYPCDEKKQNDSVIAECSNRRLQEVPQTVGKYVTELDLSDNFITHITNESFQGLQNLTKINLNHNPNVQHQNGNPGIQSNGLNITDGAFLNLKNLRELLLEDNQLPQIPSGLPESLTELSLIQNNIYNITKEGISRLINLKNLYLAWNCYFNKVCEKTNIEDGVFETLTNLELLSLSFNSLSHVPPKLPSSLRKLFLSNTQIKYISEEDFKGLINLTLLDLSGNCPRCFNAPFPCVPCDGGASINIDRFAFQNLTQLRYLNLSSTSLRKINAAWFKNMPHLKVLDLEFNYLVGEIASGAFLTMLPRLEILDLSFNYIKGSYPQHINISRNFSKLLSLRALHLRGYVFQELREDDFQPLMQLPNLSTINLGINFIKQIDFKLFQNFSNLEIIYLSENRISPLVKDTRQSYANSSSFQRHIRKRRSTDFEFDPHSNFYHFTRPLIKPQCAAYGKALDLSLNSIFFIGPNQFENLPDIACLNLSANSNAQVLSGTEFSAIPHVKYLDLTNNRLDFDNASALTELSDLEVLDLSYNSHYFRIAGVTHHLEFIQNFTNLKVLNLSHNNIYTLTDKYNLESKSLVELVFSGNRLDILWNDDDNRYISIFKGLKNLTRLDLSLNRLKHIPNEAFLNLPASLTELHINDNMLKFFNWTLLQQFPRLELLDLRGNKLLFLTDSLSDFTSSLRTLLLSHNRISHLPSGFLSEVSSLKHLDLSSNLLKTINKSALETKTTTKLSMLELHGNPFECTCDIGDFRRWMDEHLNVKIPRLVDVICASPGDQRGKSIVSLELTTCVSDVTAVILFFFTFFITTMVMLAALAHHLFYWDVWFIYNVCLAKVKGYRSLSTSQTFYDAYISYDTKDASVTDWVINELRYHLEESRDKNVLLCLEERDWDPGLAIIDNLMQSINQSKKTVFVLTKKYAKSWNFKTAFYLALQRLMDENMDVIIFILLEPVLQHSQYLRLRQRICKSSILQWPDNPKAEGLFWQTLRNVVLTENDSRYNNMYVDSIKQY
assay.comment: HEK-Blue human TLR8 cells, NF-κB SEAP reporter assay
applied.conditions: stimulation for 20 hours
quantity.kind: EC50 (nM)

Would you please look over these solved cases?
| molecule | experimental.system | quantity.kind | result.units | endpoint.result |
| --- | --- | --- | --- | --- |
| CCCN(CCC)C(=O)C1=Cc2ccc(C(=O)Nc3cc(C)cc(CN)c3)cc2N=C(N)C1 [Example 43] | human TLR8 (Homo sapiens (Human)) | EC50 | nM | 15 |
| CCCN(CCC)C(=O)C1=Cc2ccc(C(=O)Nc3cccc(C(F)(F)F)c3)cc2N=C(N)C1 [Example 31] | human TLR8 (Homo sapiens (Human)) | EC50 | nM | 5 |
| CCCN(CCC)C(=O)C1=Cc2ccc(C(=O)Nc3nccs3)cc2N=C(N)C1 [Example 11] | human TLR8 (Homo sapiens (Human)) | EC50 | nM | 29 |
| CCCN(CCC)C(=O)C1=Cc2ccc(C(=O)Nc3cccc(CN)c3)cc2N=C(N)C1 [Example 36] | human TLR8 (Homo sapiens (Human)) | EC50 | nM | 31 |

A. CCCN(CCC)C(=O)C1=Cc2ccc(C(=O)Nc3cncs3)cc2N=C(N)C1 [Example 9]
B. CCCN(CCC)C(=O)C1=Cc2ccc(C(=O)Nc3ccnnc3)cc2N=C(N)C1 [Example 34]
// task: argmin of EC50 over [ A , B ] The response must carry the label of the picked entry.
B
(B: 2 nM, A: 3 nM)

P. CCCN(CCC)C(=O)C1=Cc2ccc(C(=O)Nc3cncc(CN(C)C)c3)cc2N=C(N)C1 [Example 78]
Q. CCCN(CCC)C(=O)C1=Cc2ccc(C(=O)Nc3cncc(CCCCN)c3)cc2N=C(N)C1 [Example 76]
R. CCCN(CCC)C(=O)C1=Cc2ccc(C(=O)Nc3ccc(Cl)cc3)cc2N=C(N)C1 [Example 10]
Thanks in advance: please rank these 3 entries by EC50, highest to lowest. Your answer should be the labels, listed in the requested order.
Q, P, R

I. CCCN(CCC)C(=O)C1=Cc2ccc(C(=O)Nc3cccc(S(C)(=O)=O)c3)cc2N=C(N)C1 [Example 8]
II. CCCN(CCC)C(=O)C1=Cc2ccc(C(=O)Nc3cccc(CC)c3)cc2N=C(N)C1 [Example 29]
Select the item with the higher value of EC50 from the options I and II listed. The response must carry the label of the picked entry.
I
(I: 10 nM, II: 1 nM)

1. CCCN(CCC)C(=O)C1=Cc2ccc(C(=O)Nc3ccncc3)cc2N=C(N)C1 [Example 3]
2. CCCN(CC1CC1)C(=O)C1=Cc2ccc(C(=O)Nc3cncc(OCC)c3)cc2N=C(N)C1 [Example 79]
Select the item with the higher value of EC50 from the options 1 and 2 listed. The response must carry the label of the picked entry.
1

P. CCCN(CCC)C(=O)C1=Cc2ccc(C(=O)Nc3cccnc3C)cc2N=C(N)C1 [Example 21]
Q. CCCN(CCC)C(=O)C1=Cc2ccc(C(=O)Nc3cncc(OCCN)c3)cc2N=C(N)C1 [Example 66]
Select the item with the higher value of EC50 from the options P and Q listed. The response must carry the label of the picked entry.
Q

A. CCCN(CCC)C(=O)C1=Cc2ccc(C(=O)Nc3ccccc3C)cc2N=C(N)C1 [Example 27]
B. CCCCN(CCCC)C(=O)C1=Cc2ccc(C(=O)Nc3cccc(C)c3)cc2N=C(N)C1 [Example 42]
// task: argmin of EC50 over [ A , B ] The response must carry the label of the picked entry.
A
